Data provenance: patent US6147204

# tgt: VEGF (vascular endothelial growth factor) (UniProt P15692-4 P15692-4:27-191)
# Sequence (P15692 other isoform, or with tags, fused parts or gaps): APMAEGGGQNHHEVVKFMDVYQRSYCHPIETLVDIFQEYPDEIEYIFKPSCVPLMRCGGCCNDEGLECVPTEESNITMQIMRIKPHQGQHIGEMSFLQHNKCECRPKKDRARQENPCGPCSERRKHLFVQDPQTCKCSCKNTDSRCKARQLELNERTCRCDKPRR
# protocol-summary: competition; apparent ED50, competition ELISA; printed 10^-7 M
# condition-description: chain copies: 2
experimental-readout: EC50

The recorded EC50 for entry TTTTACCCUGAUGGUAGACGCCGGGGUGTTTTT (mixed, 5'-dialkylglycerol (DAG), embedded in DSPC:cholesterol liposome) [NX278-liposome] equals ~100 nM
